- TEST_NAME: splicing luciferase reporter signal modulators, primary screen, spliceosome inhibition project, cell-based, HEK293, splice +/- reporter (AID 1101);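 further: HEK293 cells carrying a splicing-competent luciferase reporter gene; test concentration not given here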
- CONDITION: luminescence, 24 h, higher = more signal, called active from +8 up or from −8 down
Measured z-score accompanies every entry in the list below.
ENDPOINT: z-score

[
  {
    "COMPOUND": "COC(=O)c1c2oc(c1C(=O)OC)C(=O)N[C@@H](C(C)C)Cn1nncc1C1(CCCCC1)NC(=O)N[C@H](CO)CC2",
    "TEST_RESULT": -1.44
  },
  {
    "COMPOUND": "COc1ccc(C(=O)Nc2cccc(CN3C(=O)[C@@]4(O[C@@H](CCO)[C@H]([Si](C)(C)c5ccc(OC)cc5)[C@H]4C)c4ccccc43)c2)cc1",
    "TEST_RESULT": 1.92
  },
  {
    "COMPOUND": "NCCCCCNC(=O)[C@H]1C[C@H]2C(=O)NCC(=O)N2[C@H]1c1ccc(O)cc1",
    "TEST_RESULT": -0.25
  },
  {
    "COMPOUND": "C[N+](C)(C)CCCCNC(=O)[C@@H]1C[C@@H]2C(=O)NCC(=O)N2[C@@H]1c1cccc(OCCO)c1",
    "TEST_RESULT": -1.49
  },
  {
    "COMPOUND": "CC(C)C[C@@H]1NC(=O)[C@@H]2C[C@H](C(=O)NCCCCCNC(=O)CS)[C@H](c3cccc(OCCO)c3)N2C1=O",
    "TEST_RESULT": -1.15
  },
  {
    "COMPOUND": "CC(C)C[C@@H]1NC(=O)[C@@]23C(=O)N[C@@H](Cc4ccccc4)C2[C@H](C)[C@@]2(C)O[C@H]2C3/C=C/CC/C=C/CNC(=O)[C@@H](C)NC1=O (some centres not stated)",
    "TEST_RESULT": -0.585
  },
  {
    "COMPOUND": "COc1ccc([Si](C)(C)[C@@H]2[C@@H](CC(=O)N3CCC[C@H]3CO)O[C@]3(C(=O)N(Cc4ccc(I)cc4)c4ccccc43)[C@H]2C)cc1",
    "TEST_RESULT": -1.62
  }
]

----------
- TEST_NAME: PSAC antagonists in infected red cells, primary screen, cell-based, P. falciparum Indochina, OD700, 2 h (AID 1155);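 further: lysis reports solute entry through the parasite surface anion channel PSAC; channel blockers reduce lysis of infected cells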
- CONDITION: P. falciparum Indochina infected erythrocytes, osmotic lysis OD700; higher = more signal, called active from +8 up or from −8 down

[
  {
    "COMPOUND": "O=C1c2ccccc2C(=O)c2cc([C@H]3Oc4ccccc4S(=O)(=O)N4CCC[C@@H]34)ccc21",
    "z-score": 0.452
  },
  {
    "COMPOUND": "O=C(NCc1ccccc1)[C@@H]1c2ccccc2C(=O)N(Cc2ccccc2Cl)[C@H]1c1ccc(CO)cc1",
    "z-score": -0.576
  },
  {
    "COMPOUND": "O=C(NC1CC1)[C@@H]1c2ccccc2C(=O)N(Cc2ccccc2C(F)(F)F)[C@H]1c1ccc(CO)cc1",
    "z-score": 0.721
  },
  {
    "COMPOUND": "C=CCC(OC(C)=O)[C@@H]1[C@@H](N(Cc2ccc(-c3cccc(C(F)(F)F)c3)o2)C(=O)c2ccc(-c3ccccc3)cc2)c2cc(OCCCO)ccc2N1C(=O)Cc1ccc(OC)cc1 (stereo partly specified)",
    "z-score": 0.485
  },
  {
    "COMPOUND": "CCCCC(=C=CC[C@H](O)c1cccc(OCCO)c1)CCO",
    "z-score": 1.91
  },
  {
    "COMPOUND": "C=CCNC(=O)[C@@H]1[C@H]2C(=O)O[C@H](c3ccccc3)[C@H](c3ccccc3)N2[C@H](c2ccc(O)cc2)[C@@]12C(=O)Nc1ccc(C#Cc3ccc(OC)cc3)cc12",
    "z-score": -0.224
  },
  {
    "COMPOUND": "O=C1O[C@H](c2ccccc2)[C@H](c2ccccc2)N2[C@H]1[C@@H](C(=O)Nc1nc3ccccc3s1)[C@]1(C(=O)Nc3ccc(C#CCCO)cc31)[C@H]2c1ccccc1OCCO",
    "z-score": 2.95
  },
  {
    "COMPOUND": "Cc1ccc(N2C(=O)c3ccccc3[C@](C)(C(=O)NCC(F)(F)F)[C@@H]2c2ccc(CO)cc2)nc1",
    "z-score": 0.253
  },
  {
    "COMPOUND": "Cc1ccc(S[C@]2(C(=O)NC3CC3)CC(=O)N(Cc3ccccc3C(F)(F)F)[C@@H]2c2ccc(CO)cc2I)cc1",
    "z-score": -0.15
  },
  {
    "COMPOUND": "COCCCNC(=O)[C@@]1(Cc2ccccc2CN=[N+]=[N-])COC(c2ccc(OCCCO)cc2)=N1",
    "z-score": 22
  },
  {
    "COMPOUND": "C=CCC(OC(C)=O)[C@@H]1[C@@H](N(Cc2ccc(-c3ccccc3)cc2)C(=O)c2ccc(-c3ccccc3)cc2)c2cc(OCCCO)ccc2N1C(=O)c1ccc(-c2ccccc2)cc1 (stereo partly specified)",
    "z-score": 0.712
  },
  {
    "COMPOUND": "CC(C)C(CO)N1C(=O)[C@@H]2C3C(=O)OCCC/C=C\\[C@H]3OC23C=CCN(C(C)C)C(=O)[C@@H]13 (stereo partly specified)",
    "z-score": -0.96
  },
  {
    "COMPOUND": "CC(C)C[C@@H]1NC(=O)[C@@]23C(=O)N[C@@H](Cc4ccccc4)C2[C@H](C)[C@@]2(C)O[C@H]2C3/C=C/CC/C=C/CNC(=O)[C@@H](C)NC1=O (stereo partly specified)",
    "z-score": 0.548
  },
  {
    "COMPOUND": "O=C1O[C@@H](c2ccccc2)[C@@H](c2ccccc2)N2[C@@H](c3ccc(OCCO)cc3)[C@]3(C(=O)Nc4ccc(C#CC5(O)CCCCCC5)cc43)[C@@H](C(=O)NC[C@H](O)c3ccccc3)[C@H]12",
    "z-score": 0.484
  },
  {
    "COMPOUND": "[N-]=[N+]=Nc1ccccc1[C@H]1OC(c2ccc(OCCCO)cc2)=N[C@@]1(Cc1ccccc1)C(N)=O",
    "z-score": 28.4
  },
  {
    "COMPOUND": "C=C(/C(=C/C[C@H](OC(C)=O)c1cccc(OCCO)c1)c1cc(C(=O)OC)ccc1OC)C(C)C",
    "z-score": 1.29
  },
  {
    "COMPOUND": "C=CCNC(=O)[C@H]1[C@@H]2C(=O)O[C@@H](c3ccccc3)[C@@H](c3ccccc3)N2[C@@H](c2ccc(OCCO)cc2)[C@]12C(=O)Nc1ccc(C#CCCO)cc12",
    "z-score": -0.407
  },
  {
    "COMPOUND": "COC(=O)c1c(CC[C@@H](CO)NC(=O)Nc2ccc(OC)cc2)oc(C(=O)Cc2ccccc2)c1C(=O)OC",
    "z-score": 1.01
  },
  {
    "COMPOUND": "O=C(NCC(F)(F)F)[C@@H]1c2ccccc2C(=O)N(C2Cc3ccccc3C2)[C@H]1c1ccc(CO)cc1",
    "z-score": -0.483
  },
  {
    "COMPOUND": "CCCCC(=C=CC[C@@H](O)c1ccc(OCCO)cc1)C[C@@H](O)c1cc(Cl)cc(Cl)c1O",
    "z-score": 4.24
  },
  {
    "COMPOUND": "COC(=O)C(CC#Cc1ccc2c(c1)[C@]1(C(=O)N2)[C@H](c2ccccc2OCCO)N2[C@H](c3ccccc3)[C@H](c3ccccc3)OC(=O)[C@H]2[C@@H]1C(=O)N1CCCCCCC1)C(=O)OC",
    "z-score": 0.71
  },
  {
    "COMPOUND": "CC(=O)NCCCC[C@@H]1NC(=O)[C@@H]2C[C@H](C(=O)O)[C@H](c3cccc(OCCO)c3)N2C1=O",
    "z-score": 0.373
  },
  {
    "COMPOUND": "COCCCNC(=O)[C@@]1(C)c2ccccc2C(=O)N(Cc2cc(F)cc(C(F)(F)F)c2)[C@H]1c1ccc(CO)cc1",
    "z-score": 0.459
  },
  {
    "COMPOUND": "C=CCOC(=O)[C@H]1[C@@H]2C(=O)O[C@@H](c3ccccc3)[C@@H](c3ccccc3)N2[C@@H](c2ccc(OCCOC(=O)[C@H]3C[C@H]4C(=O)N5CCC[C@H]5C(=O)N4[C@H]3c3cccc(OCCO)c3)cc2)[C@]12C(=O)Nc1ccccc12",
    "z-score": 1.7
  },
  {
    "COMPOUND": "C=CCC(OC(C)=O)[C@@H]1[C@@H](N(Cc2cccc3ccccc23)C(=O)Cc2ccc(OC)cc2)c2cc(OCCCO)ccc2N1C(=O)Cc1ccc(OC)cc1 (stereo partly specified)",
    "z-score": 0.317
  },
  {
    "COMPOUND": "COC(=O)C(CC#Cc1ccc2c(c1)[C@]1(C(=O)N2)[C@H](C(N)=O)[C@H]2C(=O)O[C@H](c3ccccc3)[C@H](c3ccccc3)N2[C@@H]1c1ccc(O)cc1)C(=O)OC",
    "z-score": 1.23
  }
]
